// protein stability index lookup, one value per entry
B1: RAB11A (parent)
chain: AVPTDEARAFAEKNGLSFIETSAL

Variants of: B1
Assay: protein stability index of a GFP-peptide fusion (GPS, HEK-293T) (PSI 1-6); higher = more stable;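 further: lentivirally expressed fusions sorted by FACS into six bins by GFP to DsRed ratio, PSI derived from sequencing read proportions per bin multiplied by bin number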
Conditions: c terminus: a fixed tail appended
Measure name: protein stability index

mutant_name=A23V observed=2.12
mutant_name=A1R observed=2.46
mutant_name=G15I observed=2.8
mutant_name=S22V observed=2.64
mutant_name=A9P observed=2.08
mutant_name=N14Y observed=2.17
mutant_name=R8K observed=2.61
mutant_name=D5L observed=2.41
mutant_name=L24T observed=3.98
mutant_name=A11C observed=2.32
mutant_name=E12H observed=1.96
